experiment: Compound A2 concentration in the CSF of rats; type: in vivo; conditions: rat, CSF, po, 10 mg/kg, PO, 4.0 h, mean, read-out: CSF Concentration, Mean
resultType: concentration at 4 h (ng/mL)
Reply with just the number (in ng/mL).

// query Need concentration at 4 h, item Cc1ccc(C(F)(F)F)cc1NS(=O)(=O)c1cccc(C(=O)O)c1
// result 97.4

----------
experiment: Compound A2 concentration in the CSF of rats; assay type: in vivo; details: rat, CSF, iv, 1 mg/kg, IV, 4.0 h, mean, read-out: CSF Concentration, Mean
resultType: concentration at 4 h
Respond with the figure and its unit, in that order.

// query Need concentration at 4 h, item Cc1ccc(C(F)(F)F)cc1NS(=O)(=O)c1cccc(C(=O)O)c1 [Compound A2]
// result 15 ng/mL

----------
assay: Pharmacokinetic study of compound A2 in rats; type: in vivo; conditions: rat, in vivo, 10 mg/kg, PO
resultType: AUC(0-inf) (ng·h/mL)
Reply with just the number (in ng·h/mL).

// query Need AUC(0-inf), item Cc1ccc(C(F)(F)F)cc1NS(=O)(=O)c1cccc(C(=O)O)c1
// result 64200
